Provenance of the data: paper PMC6792352

Measured CC50 at 24 h, listed per entry.
Assay: in vitro
Conditions: rat, gh3-tre-luc cells, AC50 (uM) modified / 1000
Counter-ions that a name gives are not always drawn.

CC(C)COC(=O)c1ccccc1 [Isobutyl benzoate] :: > 90 µM

For COc1c2c(cc3c1OCO3)CCN(C)C2 [Hydrocotarnine hydrobromide] the compound record lists CC50 at 24 h as > 20 µM

For `CC(C)C[C@@H](N)C(=O)O` the compound record lists CC50 at 24 h as > 50 µM

For `Cc1nc(-c2ccccn2)ncc1C(=O)Nn1cc(C)c2cc(F)ccc21` the compound record lists CC50 at 24 h as > 90 µM
